Assay: duplex melting temperature (HRM, EvaGreen); higher = more stable duplex
Conditions: duplex concentration 2.5 µM; backbone: PS-PO (listed strand fully phosphorothioate, complement phosphodiester)
metric: duplex melting temperature (°C)
Kindly answer with a numeric value in °C, unit omitted.

// worked examples, duplex melting temperature included
In [3]: df
Out[3]:
         biosequence  valueunit  valuemeasured
0  CACAGCGACATGTATGG         °C           61.7
1   CCGCTCAGAGTAGAGA         °C           59.7
2  GCTGTGAAACAATGTAG         °C           55.4
3  CTGTAAGGCGATATGTT         °C           57.5
4   GTGAGCAGAAGGGGTT         °C           62.6

API: the following record is the query input.
duplex melting temperature in this record for GAGGCAGCCGCGACCTG : 72

Data origin: the supplement of paper PMC9116672
